assay: Hexane solubility; type: physicochemical; settings: 43 g sample in 100 g n-hexane at 23° C., stirred 1 hour, naked eye; also: key: S: Completely dissolved; C: Dissolved, but insoluble materials remained; I.S.: Substantially not dissolved
recorded-endpoint: Hexane solubility 43 g

compound="CCCCCCCCN(CCCCCCCC)c1nc(N(CCCC)C2CC(C)(C)NC(C)(C)C2)nc(N(CCCC)C2CC(C)(C)NC(C)(C)C2)n1 [Exemplary compound 12]" recorded_measurement=S
compound="CCCCCCCCN(c1nc(N(CCCCCCCC)C2CC(C)(C)N(C)C(C)(C)C2)nc(N(CCCCCCCC)C2CC(C)(C)N(C)C(C)(C)C2)n1)C1CC(C)(C)N(C)C(C)(C)C1 [Exemplary compound 7]" recorded_measurement=S
compound="CCCCCCCCCCCCNc1nc(N(CCCC)C2CC(C)(C)NC(C)(C)C2)nc(N(CCCC)C2CC(C)(C)NC(C)(C)C2)n1 [Exemplary compound 9]" recorded_measurement=S
